- System: Plasmodium falciparum
- method_summary: GSK_TCMDC: Inhibition of Plasmodium falciparum 3D7 in whole erythrocytes, using parasite LDH activity as an index of growth.
- Type: functional, organism-based
- experimental_parameters: Plasmodium falciparum, 3D7
I'd be grateful if you could share measured XC50 for these entries.
One number for each entry, in nM.

[[record]]
compound = "Cc1ccc(NC(=O)c2ccc(C(=O)NC3CCN(CC4CCCCC4)CC3)cc2)cc1"
observed = 903

[[record]]
compound = "O=C(Nc1ccc(Cl)cc1C(=O)Nc1ccncc1)c1ccc(Cl)cc1Cl"
observed = 611

[[record]]
compound = "CCN(CC)CCN(Cc1ccc(-c2ccc(C(F)(F)F)cc2)cc1)C(=O)Cn1cc(Cc2cnn(C)c2)c(=O)n2nc(-c3ccccc3)cc12"
observed = 730


Answer for every listed entry: what is its XC50? The entries follow.
1. O=C(COc1ccc(F)cc1)NC1CCN(c2ccnc3cc(Cl)ccc23)C1 (centres undefined)
2. CC1(C)CN(CCC2CCC(NC(=O)/C=C/c3ccccc3F)CC2)Cc2ccc(C#N)cc21 (centres undefined)

[out]
265
1110

###

- System: Plasmodium falciparum
- method_summary: GSK_TCMDC: Inhibition of Plasmodium falciparum 3D7 in whole erythrocytes, using parasite LDH activity as an index of growth.
- Format: functional, organism-based
- experimental_parameters: Plasmodium falciparum, 3D7
outcome_measure: XC50 (nM)
Answers are plain numbers, in nM.

[[record]]
item_smiles = "Fc1cc(Cl)ccc1Nc1ccnc2cc(-c3ccc(CN4CCNCC4)o3)ccc12"
observed = 277

[[record]]
item_smiles = "O=C(Nc1ccccc1F)N(CCCn1ccnc1)Cc1csc(-c2ccc(CNCc3ccccc3)cc2)n1"
observed = 841

[[record]]
item_smiles = "COc1ccc(NC(=O)[C@H](CC(C)C)Nc2cc(C)nc(NCCc3ccc(F)cc3)n2)cc1"
observed = 925

[[record]]
item_smiles = "O=C(c1ccc(-c2ccccn2)s1)N1CCc2cc3nccc(N4CCN5CCC[C@H]5C4)c3cc21"
observed = 762


The molecule listed as COc1cc(OC)c2c(C)cc(NCCCN3CCOCC3)nc2c1 shows XC50 equal to 1070

###

Record form. Attribute: XC50. Fill in for each entry.
- Test system: Plasmodium falciparum
- method_summary: GSK_TCMDC: Inhibition of Plasmodium falciparum 3D7 in whole erythrocytes, using parasite LDH activity as an index of growth.
- Format: functional, organism-based
- experimental_parameters: Plasmodium falciparum, 3D7
Give bare numbers, in nM.

[[record]]
compound = "COc1ccc2ncc(F)c(CCN3CCC(NCc4cc(Br)c5c(c4)OCCO5)CC3)c2n1"
observed = 190

[[record]]
compound = "CC1c2cccc(O)c2CCN1CCc1ccc(Cl)c(Cl)c1 (stereo not given)"
observed = 138

[[record]]
compound = "Cc1cc(N2CCCC2=O)ccc1-c1ccc(C(=O)N2CCC(Oc3cccc(Cl)c3)CC2)cc1"
observed = 427

[[record]]
compound = "O=C(c1ccccc1)N1CCC(CN2CCOC(c3ccccc3)(c3ccccc3)C2)CC1"
observed = 497


Let us examine a further case.
The recorded XC50 for entry COc1cc(NC2CCCC(NCc3cn(S(=O)(=O)c4ccccc4)c4ccccc34)C2)nc2ccccc12 (stereo not given) equals 248

###

Could you please report measured XC50 for the items listed next?
- Tested on: Plasmodium falciparum
- method_summary: GSK_TCMDC: Inhibition of Plasmodium falciparum 3D7 in whole erythrocytes, using parasite LDH activity as an index of growth.
- Format: functional, organism-based
- experimental_parameters: Plasmodium falciparum, 3D7
One number for each entry, in nM.

[[record]]
item_smiles = "Cc1cc(NC(=O)CCCN2CCN(c3cccc(Cl)c3Cl)CC2)ccc1N1CCN(C(C)C)CC1"
observed = 757

[[record]]
item_smiles = "CN(CCCNCc1cccc2ccccc12)CCCNCc1cccc2ccccc12"
observed = 722

[[record]]
item_smiles = "CCc1cccc(C)c1-n1nc(-c2cc(C(C)(C)C)oc2C)cc1N"
observed = 658

[[record]]
item_smiles = "COc1ccc(Cn2ccc3c4c(N)nc(N)nc4ccc32)cc1"
observed = 3.2


Okay, now this compound:
The value of XC50 recorded for COc1cc(-c2nc(-c3ccncc3)c(-c3ccc4c(c3)CCC4=NO)[nH]2)ccc1OCCN1CCN(C)CC1 when tested on Plasmodium falciparum reads 756

###

- Tested on: Plasmodium falciparum
- method_summary: GSK_TCMDC: Inhibition of Plasmodium falciparum 3D7 in whole erythrocytes, using parasite LDH activity as an index of growth.
- Format: functional, organism-based
- experimental_parameters: Plasmodium falciparum, 3D7
outcome_measure: XC50 (nM)
Numbers only, in nM.

Use these answered entries as a reference point.
[[record]]
compound = "O=C(NCCCCN1CCC(c2ccc3ccccc3c2)CC1)c1ccc(NC(=O)c2ccc(Cl)cc2)cc1"
outcome_measure = "XC50"
observed = 226

[[record]]
compound = "CON=C1CCC(Cn2ccnc2)(c2ccc(Cl)cc2Cl)CC1 (stereo not given)"
outcome_measure = "XC50"
observed = 875

[[record]]
compound = "COc1cc2c(cc1C(F)(F)F)N(C(=O)Nc1cc(F)cc(-c3cncnc3)c1)CC2"
outcome_measure = "XC50"
observed = 500


Give one value of XC50 per listed compound.
1. Cc1cc(NC(=O)c2cccs2)ccc1OC1CCN(Cc2ccccc2)C1 (stereo not given)
2. CC(=O)NCCNc1nccc(N2CCc3ncnc(Nc4ccc(OCc5cccc(F)c5)c(Cl)c4)c3C2)n1

[out]
1: 895; 2: 129

###

- System: Plasmodium falciparum
- method_summary: GSK_TCMDC: Inhibition of Plasmodium falciparum 3D7 in whole erythrocytes, using parasite LDH activity as an index of growth.
- Format: functional, organism-based
- experimental_parameters: Plasmodium falciparum, 3D7
# class 1 = XC50 below 900 nM (exclusive); class 0 = XC50 at/above 900 nM

A selection of reference data follows.
[[record]]
compound = "CC(=O)c1c(Cc2ccccc2Cl)c[nH]c1C"
label = "class 1"

[[record]]
compound = "CC[C@H]1CN2CC[C@@H]1C[C@H]2[C@H](O)c1cc[n+]([O-])c2ccc(OC)cc12"
label = "class 1"

[[record]]
compound = "COc1ccc([N+](=O)[O-])cc1N(Cc1ccccc1-c1ccccc1)S(=O)(=O)c1ccc(C(F)(F)F)cc1"
label = "class 1"

[[record]]
compound = "O=C(C=Cc1cccc(F)c1)NC1CCC(CCN2CCc3ccc(-c4cnccn4)cc3CC2)CC1 (centres undefined)"
label = "class 1"

[[record]]
compound = "CC(NC(=O)NC1CCC(CCN2CCCc3ccccc32)CC1)c1cccc2ccccc12 (centres undefined)"
label = "class 0"

[[record]]
compound = "Nc1ncc(-c2cccc(OCc3ccccc3)c2)cc1-c1nnc2ccc(Cl)nn12"
label = "class 0"

[[record]]
compound = "Brc1ccc(Nc2nc(NCC3CCCO3)c3ccccc3n2)cc1 (centres undefined)"
label = "class 1"

[[record]]
compound = "CC(C)OC(=O)c1ccc(NC(=O)N[C@@H](Cc2ccc(O)cc2)C(=O)NC2CC3CCC(C2)N3Cc2ccccc2)cc1 (some centres undefined)"
label = "class 0"


[in] Check if XC50 falls below 900 nM for COC(=O)c1cccc(CNCc2cccc(-c3ccc(-c4nc5cccc(C)c5[nH]4)cc3)c2)c1 .
[out] class 1

[in] Please check: XC50 for Clc1ccc(-c2cc(-c3csc(NCCN4CCCCC4)n3)on2)cc1 , strictly under 900 nM or not?
[out] class 0

[in] Please indicate whether the reported XC50 of CC(=O)Nc1sc(C)c(C)c1CN1CCc2ccccc2C1 is strictly below 900 nM.
[out] class 1

[in] Find out if reported XC50 for CC(=O)N(C)c1cccc(CNc2cc(C)nc(Nc3ccc(C)cc3)n2)c1 is less than 900 nM
[out] class 0

[in] XC50 strictly < 900 nM for this compound? COc1ccccc1N1CCN(Cc2c(NC(C)=O)sc(C)c2C)CC1
[out] class 1

###

- Tested on: Plasmodium falciparum
- method_summary: GSK_TCMDC: Inhibition of Plasmodium falciparum 3D7 in whole erythrocytes, using parasite LDH activity as an index of growth.
- Assay type: functional, organism-based
- experimental_parameters: Plasmodium falciparum, 3D7
Provide the reported XC50 of each item.
Answers are plain numbers, in nM.

# annotated cases, reported XC50 shown
[[record]]
molecule = "COc1ccccc1CCNc1nc(C)cc(N[C@@H](Cc2ccccc2)C(=O)NCc2cccc(F)c2)n1"
target_or_test_system = "Plasmodium falciparum"
result_units = "nM"
observed = 867

[[record]]
molecule = "CC(=O)Nc1ncc(C(=O)Nc2ccc(-c3cccc(-c4nc5cc(F)ccc5[nH]4)c3)cc2)s1"
target_or_test_system = "Plasmodium falciparum"
result_units = "nM"
observed = 354

[[record]]
molecule = "CC(=O)Nc1ccc(Cl)c(Cl)c1"
target_or_test_system = "Plasmodium falciparum"
result_units = "nM"
observed = 41.6

[[record]]
molecule = "OCCN1CCN(Cc2ccc(-c3cccc(-c4nc5cc(F)ccc5[nH]4)c3)cc2)CC1"
target_or_test_system = "Plasmodium falciparum"
result_units = "nM"
observed = 608

[[record]]
molecule = "c1cncc(-c2cc(N3CCCCC3)nc(-c3ccncc3)n2)c1"
target_or_test_system = "Plasmodium falciparum"
result_units = "nM"
observed = 767

[[record]]
molecule = "Oc1ccc(CCCNc2nc(NCc3cccc4ccccc34)nc(N3CCCNCC3)n2)cc1"
target_or_test_system = "Plasmodium falciparum"
result_units = "nM"
observed = 987

[[record]]
molecule = "CCCCCN1CCCC(NS(=O)(=O)c2ccc(C(=O)Nc3ccc(C(F)(F)F)cc3)cc2)C1 (stereo not drawn)"
target_or_test_system = "Plasmodium falciparum"
result_units = "nM"
observed = 1630

[[record]]
molecule = "COc1ccc2ncc(F)c(CCN3CC(O)C(CNCc4ccc5c(n4)NC(=O)CS5)C3)c2c1 (stereo not drawn)"
target_or_test_system = "Plasmodium falciparum"
result_units = "nM"
observed = 784

[[record]]
molecule = "O=C(Nc1ccc(Cn2ncc(N3CCCNCC3)c(Cl)c2=O)cc1)Nc1cc(F)cc(C(F)(F)F)c1"
target_or_test_system = "Plasmodium falciparum"
result_units = "nM"
observed = 767

[[record]]
molecule = "COc1cccc(CN2CCC(C(=O)Nc3ccc(-c4nc5ccccc5[nH]4)cc3)CC2)c1"
target_or_test_system = "Plasmodium falciparum"
result_units = "nM"
observed = 627


Hi! Can you tell me XC50 for each of these molecules?
1. Cc1cccc2nc(-c3cccc(-c4ccc(NC(=O)Cc5ccc[n+]([O-])c5)cc4)c3)[nH]c12
2. COc1cc2c(cc1OC)CN(CCc1ccc(NC(=O)c3cc4cc(OC(F)(F)F)ccc4[nH]3)cc1)CC2
3. COc1ccc2nccc([C@@H](O)CN3CCC(NCCOc4ccc(F)cc4Cl)CC3)c2c1
4. Cc1cc(N[C@@H](Cc2ccccc2)C(=O)NCCc2ccccc2)nc(NCCOc2ccccc2)n1
5. CCCCNC(=O)c1cc(CNC2CCCCC2)ccc1-c1cccc(CNCc2ccc(-c3ccccc3)cc2)c1
6. CCc1c(CCNCCCCCCNCc2ccc3c(c2CC)OCO3)ccc(OC)c1OC
7. Cc1cccc2nc(-c3cccc(-c4cccc(CN5CCN(c6ccncc6)CC5)c4)c3)[nH]c12

[out]
[627, 535, 276, 1000, 531, 246, 200]

Would you mind giving XC50 for every molecule in the list below?
1. O=c1cc(NCCCNC2CCOc3c(Cl)cc(Cl)cc32)[nH]c2ccccc12 (stereo not drawn)
2. Cc1ccc(C)c(C=CC(=O)NC2CCC(CN3CCC(c4c[nH]c5ccccc45)CC3)CC2)c1 (stereo not drawn)

[out]
1: 724; 2: 765

Quick one: give me XC50 for each item below, same order please.
1. Cc1noc(C)c1-c1cccc(CNCc2cccc(-c3ccc(-c4nc5cccc(C)c5[nH]4)s3)c2)c1
2. C=C(NC(=O)c1cc(C)cc(C)c1)C(=O)OC
3. O=C(Nc1cccc(-c2ccc(-c3nc4cc(C(F)(F)F)ccc4[nH]3)cc2)c1)c1cccnc1
4. N=C(N)c1ccc2[nH]c(-c3cc4cc(C(=N)N)ccc4o3)cc2c1

[out]
1: 211; 2: 174; 3: 572; 4: 179
